assay: Cell Viability - LYMP2-005 (AID 967); conditions: LYMP2-005 lymphoblastoid cell viability; series mostly up to 92.2 µM;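 further: cells exposed to compound for 24 h at 37 °C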
Inconclusive results are not listed. Active and inactive are the calls of the source. The call rests on the fitted dose curve; in most records, active means well fitted cell-killing curve with a large enough effect; inconclusive means small, poorly fitted or top-dose-only effect, or effect the other way; inactive means no such curve, though single readings can be large or run the other way.
The categories you may choose from are active, inactive

# smi, assigned class
records = [
    ("Cc1noc(NS(=O)(=O)c2ccc(N)cc2)c1C", "inactive"),
]

Recorded test outcome, item CN(C)c1ccc(C(=C2C=CC(=[N+](C)C)C=C2)c2ccc(N(C)C)cc2)cc1
active

Per the records of this test, what outcome belongs to NNC(=O)c1ccncc1 ?
inactive

Just curious, what result did Cc1nnc(NS(=O)(=O)c2ccc(N)cc2)s1 get here?
inactive

Query: recorded result category for CCc1cc(C(N)=S)ccn1 in this test
inactive

Just curious, what result did CC1=NN(c2ccccc2)C(=O)C1 get here?
inactive

====

experiment: qHTS Assay for Lipid Storage Modulators (AID 1519); conditions: Drosophila S3 cells, BODIPY lipid droplet/cell ratio, laser cytometry; measured here: cell count channel max response; cells loaded with oleic acid
Inconclusive results are not listed.
quantity name: max response (%)
Give bare numbers, in %.

Below are worked cases with known answers.
# compound, quantity name, endpoint result
rows = [
    ("COc1c(N2CCNC(C)C2)c(F)cc2c(=O)c(C(=O)O)cn(C3CC3)c12 (centres undefined)", "max response", 19.6),
    ("CN(Cc1cc(Br)cc(Br)c1N)C1CCCCC1", "max response", -7.97),
    ("Cc1cccc(N(C)C(=S)Oc2ccc3ccccc3c2)c1", "max response", -7.01),
]

Could you report max response for every entry in the following list?
1. CCCCOc1ccc(CC(=O)NO)cc1
2. COc1ccc(C(=O)CC(=O)c2ccc(C(C)(C)C)cc2)cc1
3. Nc1[nH]c(=O)ncc1F

1: -2.68; 2: -16.9; 3: 2.68

For each of the compounds below, note its max response.
1. CCN1CCCC1CNC(=O)c1cc(S(N)(=O)=O)ccc1OC (centres undefined)
2. CNNCc1ccc(C(=O)NC(C)C)cc1
3. COC(=O)Nc1nc2ccc(Sc3ccccc3)cc2[nH]1
4. CCCOc1ccc(C(=O)OCCN(CC)CC)cc1N
5. Cc1ncc([N+](=O)[O-])n1CCO
6. CCCc1cc(C(N)=S)ccn1
7. COc1ncnc(NS(=O)(=O)c2ccc(N)cc2)c1OC

1: 2.98; 2: -0.816; 3: -3.56; 4: 10.6; 5: 17.2; 6: 8.06; 7: -20.8

Go through the items and report each one's max response.
1. CC(=O)CC(c1ccccc1)c1c(O)c2ccccc2oc1=O (centres undefined)
2. COC(=O)Nc1nc2ccc(C(=O)c3ccccc3)cc2[nH]1
3. CC1=NN(c2ccccc2)C(=O)C1
4. NC(=O)N1c2ccccc2CC(=O)c2ccccc21
5. CCCCCCNC(=O)n1cc(F)c(=O)[nH]c1=O
6. CNS(=O)(=O)Cc1ccc2[nH]cc(CCN(C)C)c2c1
7. CCCCS(=N)(=O)CCC(N)C(=O)O (centres undefined)

10.6
-1.6
16.1
10.2
11.2
40
23.2

====

assay: Quantitative High-Throughput drug screen in 47 multiple myeloma cell lines against the NCATS MIPE library collection: KMM1_JCRB cell viability assay (AID 1918960); settings: KMM1 myeloma viability, CellTiter-Glo ATP luminescence, 48 h; series mostly up to 45.8 µM; further: nearly all actives have a fitted effect of over 30% in size
Results filed as inconclusive are left out. Activity calls are given as the source filed them. Calls come from the whole dose curve; as a rule, active = well fitted cell-killing curve with a large enough effect; inconclusive = small, poorly fitted or top-dose-only effect, or effect the other way; inactive = no such curve, though single readings can be large or run the other way.
Write down the outcome that applies. Available outcomes: active, inactive

Some solved entries appear below for comparison.
# molecule, assigned class
records = [
    ("NC(=O)c1cccnc1", "inactive"),
    ("COc1ccc(C(=O)CC(=O)c2ccc(C(C)(C)C)cc2)cc1", "active"),
    ("N[C@@H](C(=O)N[C@@H]1C(=O)N2C(C(=O)O)=C(Cl)CS[C@H]12)c1ccccc1", "inactive"),
    ("CC(C(=O)O)c1ccc2c(c1)CC(=O)c1ccccc1S2 (stereo unspecified)", "inactive"),
    ("CNS(=O)(=O)CCc1ccc2[nH]cc(C3CCN(C)CC3)c2c1", "active"),
]

Lab log entry: COc1cc(NS(=O)(=O)c2ccc(N)cc2)nc(OC)n1 — outcome as called in the assay?
inactive

Test call for this molecule, please: CNC(=O)c1cc(Oc2ccc(NC(=O)Nc3ccc(Cl)c(C(F)(F)F)c3)cc2)ccn1
active

For N[C@@H](Cc1ccc(O)c(O)c1)C(=O)O , which call appears in the assay record?
inactive

====

experiment: Quantitative High-Throughput drug screen in 47 multiple myeloma cell lines against the NCATS MIPE library collection: KMS11_JCRBsus cell viability assay (AID 1919873); settings: KMS11 myeloma viability, CellTiter-Glo ATP luminescence, 48 h; series mostly up to 45.8 µM; further: nearly all actives have a fitted effect of over 50% in size
Records with an inconclusive call do not appear. Calls of active or inactive are those of the source. Calls follow the shape of the dose curve; as a rule, active = well fitted cell-killing curve with a large enough effect; inconclusive = small, poorly fitted or top-dose-only effect, or effect the other way; inactive = no such curve, though single readings can be large or run the other way.
I would appreciate it if you answered using one of these outcomes: true (1) = active, false (0) = inactive

Solved entries:
# compound, assigned class
rows = [
    ("Cc1noc(NS(=O)(=O)c2ccc(N)cc2)c1C", "false (0)"),
    ("NC(=O)c1cccnc1", "false (0)"),
    ("COc1cc2nc(N3CCCN(C)CC3)nc(NC3CCN(Cc4ccccc4)CC3)c2cc1OC", "true (1)"),
    ("CC(C)NCC(O)c1ccc(NS(C)(=O)=O)cc1 (stereo unspecified)", "false (0)"),
    ("COC(c1ccccc1)(c1ccccc1)[C@H](Oc1nc(C)cc(C)n1)C(=O)O", "false (0)"),
]

Record request — test call for Cn1c(=O)c2c(ncn2CC(O)CO)n(C)c1=O (stereo unspecified)
false (0)

====

experiment: qHTS of pediatric cancer cell lines to identify multiple opportunities for drug repurposing: Primary screen for BT-37 cells (AID 1347094); details: BT-37 viability, CellTiter-Glo luminescence, 48 h; series mostly up to 57.3 µM
Records with an inconclusive call do not appear. Active and inactive are the calls of the source. Calls follow the shape of the dose curve; as a rule, active = well fitted cell-killing curve with a large enough effect; inconclusive = small, poorly fitted or top-dose-only effect; inactive = flat fitted curve, though single readings scatter.
Just give me one of these, please: yes (1) = active, no (0) = inactive

# compound, assigned class
records = [
    ("COC(c1ccccc1)(c1ccccc1)[C@H](Oc1nc(C)cc(C)n1)C(=O)O", "no (0)"),
]

Tell me the assay call for Cc1cc(NS(=O)(=O)c2ccc(N)cc2)no1 please.
no (0)

// outcome(item) with item = O=c1cc(O)c(Cl)c[nH]1
no (0)

Call for entry N[C@@H](Cc1ccc(O)c(O)c1)C(=O)O :
no (0)

Look up the recorded call for CN(C)CCc1c[nH]c2ccc(CS(=O)(=O)N3CCCC3)cc12 in this test.
no (0)

# lookup: test call for C[C@@H](CN1CC(=O)NC(=O)C1)N1CC(=O)NC(=O)C1
yes (1)

Kindly provide the recorded test outcome for the following compound: NC(=O)N1c2ccccc2CC(=O)c2ccccc21
no (0)

Field: outcome | Entry: O=c1oc2c(O)c(O)cc3c(=O)oc4c(O)c(O)cc1c4c23
no (0)

Status in this test for CNNCc1ccc(C(=O)NC(C)C)cc1 ?
no (0)

How did this test come out for CCc1cc(C(N)=S)ccn1 ?
no (0)

How did this test come out for O=C(O)c1cc(=O)[nH]c(=O)[nH]1 ?
no (0)

I would be grateful if you could indicate the recorded call for CC(C)C1CCC(C(=O)N[C@H](Cc2ccccc2)C(=O)O)CC1 (some centres undefined) .
no (0)

Recorded test outcome, item C[C@@H]1CN(c2c(F)c(N)c3c(=O)c(C(=O)O)cn(C4CC4)c3c2F)C[C@H](C)N1
no (0)

Which outcome was assigned to Cc1ncc([N+](=O)[O-])n1CCO in this test?
no (0)

Status in this test for CCOCC(O)COc1ccc(NC(=O)CC[S+](C)C)cc1 (centres undefined) ?
no (0)

Per the assay record, what outcome was assigned to O=C(O)c1cccnc1 ?
no (0)

====

assay: qHTS profiling for inhibitors of Plasmodium falciparum proliferation (AID 504749);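 further: 0% = DMSO vehicle and full inhibition = artemisinin control; nearly all actives have a fitted effect of over 60% in size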; details: P. falciparum in erythrocytes, SYBR Green DNA, 72 h; at 12.8 µM (top of the series); parasite line B
Records with an inconclusive call do not appear.
quantity name: activity, negative = inhibition (%)
Give bare numbers, in %.

Illustrative cases are given below, each with its answer.
# smi, endpoint result
rows = [
    ("Nc1ccc(S(=O)(=O)Nc2ccccn2)cc1", -1.88),
    ("Cc1cccc(Nc2ccncc2S(=O)(=O)NC(=O)NC(C)C)c1", 11.1),
    ("CCn1cc(C(=O)O)c(=O)c2cc(F)c(N3CCNCC3)cc21", -18),
]

Could you report activity, negative = inhibition for every entry in the following list?
1. COC(=O)Nc1nc2ccc(C(=O)c3ccccc3)cc2[nH]1
2. O=C(O)c1cn(C2CC2)c2cc(N3CCNCC3)c(F)cc2c1=O

1: 9.61; 2: -28.9

====

test: Primary qHTS for inhibitors of nuclear receptor binding SET domain protein 2 (NSD2) in an isogenic RCH-ACV NSD2 p.E1099K mutant (9B) (AID 1645876); settings: RCH-ACV (leukaemia line) NSD2 E1099K (9B) viability, CellTiter-Glo, 72 h; series mostly up to 44.9 µM; further: nearly all actives have a fitted effect of over 70% in size
Results filed as inconclusive are left out. Calls of active or inactive are those of the source. Calls follow the shape of the dose curve; as a rule, active = well fitted inhibition curve with a large enough effect; inconclusive = small, poorly fitted or top-dose-only effect; inactive = flat fitted curve, though single readings scatter.
Please answer using one outcome listed in true (1) for active, false (0) for inactive

Answered examples (8):
# compound, assigned class
rows = [
    ("C#CCN[C@@H]1CCc2ccccc21", "false (0)"),
    ("CCOCC(O)COc1ccc(NC(=O)CC[S+](C)C)cc1 (configuration not stated)", "false (0)"),
    ("CCCc1cc(C(N)=S)ccn1", "false (0)"),
    ("O=P(O)(O)C(O)(Cc1cccnc1)P(=O)(O)O", "false (0)"),
    ("Nc1[nH]c(=O)ncc1F", "false (0)"),
    ("COc1ccc(C(=O)CC(=O)c2ccc(C(C)(C)C)cc2)cc1", "false (0)"),
    ("CC(=O)CC(c1ccccc1)c1c(O)c2ccccc2oc1=O (configuration not stated)", "false (0)"),
    ("NC(=O)c1ccc2[nH]ccc2c1", "false (0)"),
]

What did this assay record as the result for Cn1nnc2c(C(N)=O)ncn2c1=O ?
false (0)

Could you check what this test reported for Nc1nc(N)nc(-c2cc(Cl)ccc2Cl)n1 ?
false (0)

Check the results log: what was the call for CCOC(=O)c1ccc(OC(=O)CCCCCN=C(N)N)cc1 ?
false (0)

Please share the test call associated with Cc1ccc(S(=O)(=O)N[C@@H](Cc2ccccc2)C(=O)CCl)cc1 .
true (1)

Given NC(=O)c1cccnc1 , state the outcome it received in this test.
false (0)

Field: outcome | Entry: O=NN(CCCl)C(=O)NC1CCCCC1
false (0)

What classification did O=C(O)CSCC(=O)NC1CCSC1=O (configuration not stated) end up with in this test?
false (0)

Cited source: PubChem BioAssay (NCATS)
